experiment: Human HepG2 cell viability assay in 384 well format; format: toxicity, cell-based; set-up: dose 125 nL, time 70.5 hour; concentration not given beside the values; conditions: HepG2 cells, read-out: Inhibition
measured parameter: cytotoxicity at 70.5 h
Quote the value and follow it with the unit of measurement.

Requested field: cytotoxicity at 70.5 h. Item: Cc1nnc2ccc(OCCNS(=O)(=O)c3cccs3)nn12
-9.99%

Reported cytotoxicity at 70.5 h for Cc1nn(C)cc1CN1CCCC(n2c(=O)oc3ccc(Cl)cc32)C1 (stereo not drawn) : what is it?
46.8%

I'd like to know its cytotoxicity at 70.5 h. The molecule in question is CN(C)CC(=O)N1CCCC2(CCN(c3ccccc3)C2=O)C1 (stereo not drawn)
-9.67%

May I ask what cytotoxicity at 70.5 h has been recorded for COc1cc(NC(=O)NCC2CCCO2)cc(OC)c1OC (stereo not drawn) ?
-5.38%

Given the entry Nc1cc(-c2c[nH]nc2C2CCCN2CCCc2ccccc2)ccn1 (stereo not drawn) , report its measured cytotoxicity at 70.5 h.
-1.57%

Which cytotoxicity at 70.5 h value is on record for Cn1cc(-c2nnc3sc(C4CC4)nn23)cn1 ?
-4.13%

// lookup cytotoxicity at 70.5 h for NS(=O)(=O)CCNC(=O)C1(c2ccccc2)CC1
-1.21%

// cytotoxicity at 70.5 h lookup, key: O=C1Nc2ccccc2NC12CCN(Cc1nnc(C3CC3)o1)CC2
-5.39%

For the molecule shown here, Cc1cc(C)c(C(=O)NC(c2nnc3n2CCNCC3)C(C)C)c(C)c1 (stereo not drawn) , give the reported cytotoxicity at 70.5 h.
-5.04%

Reported cytotoxicity at 70.5 h for Cc1nc(N(C)C)nc2c1COCC21CCN(CC2CC2)C1 (stereo not drawn) : what is it?
5.56%

Need cytotoxicity at 70.5 h of O=C(CC1CC1)N1CCc2ncc(CN3CCOCC3)n2CC1 , thanks.
-13.3%

Consider the molecule Cc1ccc(S(=O)(=O)N2CCN(C)c3ccncc32)cc1F and give its measured cytotoxicity at 70.5 h.
-4.45%

Any idea what cytotoxicity at 70.5 h was measured for Cc1ccc(NC(=O)C2=CN=S=N2)cc1 ?
18.8%

Request the reported cytotoxicity at 70.5 h associated with O=C1CCCCN1CCc1nc(C2(c3ccc(F)cc3)CCOC2)no1 (stereo not drawn)
12.7%

cytotoxicity at 70.5 h for COc1ccc(CNC2CCCc3nc(N(C)C)ncc32)c(OC)c1 (stereo not drawn) ?
-8.28%

Can you look up the measured cytotoxicity at 70.5 h of CNC(=O)C1CN(Cc2cc(C)on2)CCN(C2CCOCC2)C1 (stereo not drawn) for me?
-7.77%

Field request: cytotoxicity at 70.5 h | item: CNCc1cc(F)ccc1Oc1ccc(F)cc1F
-0.802%

# get_value(readout='cytotoxicity at 70.5 h', item= CC(C)N(C)Cc1cn2c(n1)CN(Cc1ccsc1)CC2 )
10.4%

So what's the measured cytotoxicity at 70.5 h for this one? Cc1cnc(N2CCCC3(CCCN(C)C3)C2)nc1 (stereo not drawn)
-0.385%

Fill in: cytotoxicity at 70.5 h of Cn1ncc2c1CN(Cc1ccc(F)cc1)CC2COCC1CC1 (stereo not drawn) is ___
31.5%

I am curious: what cytotoxicity at 70.5 h value has been reported for COc1ccc(Cl)cc1-c1cc(NC(=O)C2COCCO2)[nH]n1 (stereo not drawn) ?
-4.84%

Endpoint output: cytotoxicity at 70.5 h of Cc1ccsc1[C@@H]1CCN(C(=O)c2ccc(-c3cc[nH]n3)cc2)C[C@H]1O . Value?
-10.8%

cytotoxicity at 70.5 h lookup needed for COc1ccccc1CC(=O)N1CC[C@H](O)[C@]2(CCCO2)C1 , thanks.
-6.73%

Requested read-out: cytotoxicity at 70.5 h. Entry: CCOc1cc(C(=O)N2CCCC(c3noc(C(C)C)n3)C2)ccn1 (stereo not drawn)
-3.39%

Returns the measured cytotoxicity at 70.5 h for the input molecule. Input: CC(C)NC(=O)NC[C@H]1OC[C@@H](NCc2ccc(S(C)(=O)=O)cc2)[C@@H]1O
-3.26%

Look up cytotoxicity at 70.5 h for this molecule: CC(C)NC(=O)N1CCC2(CC1)COc1ccccc1S(=O)(=O)N(C)C2
0.573%

Entry Cc1cc(S(=O)(=O)NCc2cccc(C(=O)N3CCCC3)c2)c(C)s1 has what cytotoxicity at 70.5 h?
-0.781%

Looking for the measured cytotoxicity at 70.5 h of Cn1cnnc1C1CCCN(C(=O)c2cnc3ccccc3n2)C1 (stereo not drawn) , can you help?
-1.48%

What measured cytotoxicity at 70.5 h goes with O=C(NC1CC1)N(CCc1ccccc1)C1CCOC1 (stereo not drawn) ?
12.1%

Entry CN(C)c1ccc2c(c1)CN(C(=O)c1cnccn1)C2c1cnco1 (stereo not drawn) has what cytotoxicity at 70.5 h?
22.8%

State the recorded cytotoxicity at 70.5 h for this entry: Cc1ccc(OCc2nnc(SCC3CCCN(C)C3)o2)cc1 (stereo not drawn)
-8.56%

Please look up its cytotoxicity at 70.5 h: CO[C@H]1CC[C@H]2[C@H]1OCCN2C(=O)CC1=CCCCC1
-2.24%

Consider the molecule Cc1cccc(C(=O)N2CCSCC2)c1NC(=O)c1cccnc1 and give its measured cytotoxicity at 70.5 h.
-7.35%

May I ask what cytotoxicity at 70.5 h has been recorded for CN1CC(Oc2ccc(Cl)cc2)=NC(SCC(=O)Nc2ccccc2)=N1 ?
7.43%

Fill in: cytotoxicity at 70.5 h of O=C(CCc1ccccc1)N1CCn2cc(Cn3cncn3)nc2C1 is ___
-11.8%

Need cytotoxicity at 70.5 h, item O=c1[nH]c2nc(N3CCSCC3)ncc2c(=O)n1-c1ccc(F)cc1
-16.9%

Which cytotoxicity at 70.5 h value belongs to CC(C)NC(=O)[C@@H]1Cc2[nH]cnc2CN1CCCc1ccccc1 ?
6.69%

Endpoint output: cytotoxicity at 70.5 h of COc1c(C2CCCN2Cc2noc(C(C)C)n2)c(C)nn1C (stereo not drawn) . Value?
28.5%

Sample CCc1nnc2n1CCN(Cc1csc(-c3ccsc3)n1)C2 — what was its cytotoxicity at 70.5 h?
-8.3%

Give its cytotoxicity at 70.5 h value. Item: CC(C)c1cc2c(s1)NC(c1ccccn1)NC2=O (stereo not drawn)
-3.28%

I have this molecule here, c1csc(CN2CCCn3nnc(COCC4CC4)c3C2)n1 , and I need its recorded cytotoxicity at 70.5 h.
-11%

What does the data say about its cytotoxicity at 70.5 h? Entry: CN(CCc1ccncc1)CCc1nccs1
-12.8%

Dear colleague, I am looking for the recorded cytotoxicity at 70.5 h of the following molecule: COCCn1ccnc1CN1CCc2[nH]cnc2C1c1cccc(O)c1 (stereo not drawn)
-14.3%

Report cytotoxicity at 70.5 h for CC(=O)N1CCC(c2cccc(NC3CCOCC3)n2)CC1 please.
-1.75%

# query: cytotoxicity at 70.5 h of entry Cc1cc(C)c(C(=O)N2CCOC(c3cccs3)C2)c(=O)[nH]1 (stereo not drawn)
-6.92%

For O=c1oc(-c2ccc(F)cc2)nn1CC1CCCCO1 (stereo not drawn) , what is its reported cytotoxicity at 70.5 h?
-3.87%

Query: cytotoxicity at 70.5 h; subject: Cc1cc(-c2cccc3c2CCNC3)cnc1-n1cnnc1
-5.08%

Tell me the measured cytotoxicity at 70.5 h of CC(C)NC(=O)c1ccc2c(c1)nc1n2CCN(Cc2ccco2)C1 , please.
-10.4%

Just for reference, ChEMBL document CHEMBL3507680 is where these values come from.
